# Tgt: T1, endothelial protein C receptor (EPCR), extracellular domain, biotinylated on the N-terminal BAP tag (human, UniProt Q9UNN8 18-210, biotin attached to the N-terminal BAP tag (BirA))
# T1 construct: also called biotinylated recombinant EPCR; ECPR
# T1 sequence: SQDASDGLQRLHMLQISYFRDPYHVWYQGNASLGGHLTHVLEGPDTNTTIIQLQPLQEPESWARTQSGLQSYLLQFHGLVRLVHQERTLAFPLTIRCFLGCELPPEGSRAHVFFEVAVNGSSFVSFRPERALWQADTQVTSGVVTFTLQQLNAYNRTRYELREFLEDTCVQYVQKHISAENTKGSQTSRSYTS
# Assay method text: SPR
# Particulars: both partners purified
Kd less than 50 nM is Met; Kd greater than or equal to 50 nM is Not met.

Please review the entries below; each comes with its answer.
CIDRα1.8a domain GA026_ERS010178 (domain or fragment, also called CIDRa1.8a GA026_ERS010178; GA026 (1.8a)) PDCVVDCKGAKCEQKMKPDGTCEKPQIYTRPKDVTPKIIKVLFSGDNQEDITEKLSSFCSNPKSKIDRNYQTWKCYYKSGHYNICEMKGSLYKYPEHPNDMLSVECFHLWVKNLLIDTIKWETKLKKCINNTNVTDCDNECNKNCECFENWVEQKKKEWEEVRKVYKDQKESLGIYYKKLENLFDTYYFEVMGALENEEKHGKWNQLTAKLKQIIESHKKNRHSGNSQDAIELLLDHLKETATTCKDNNSNESCDVSKDSKTNPC    Met
CIDRα1.5b domain 1983-13 (patient isolate 1983) (domain or fragment) PDCGVECNGKTCTKKEETDENCGKPPNYTIPTDVTPTDINVLYSGDEQGYITKRLSEFCGPTKNYIGKKNELWKCYYDDKQKNNNNNNNICKLQPNAHIKNENIIINFDNFFEFWVRRFLNDTIDWKYDLNTCMNFTNTTKCNNNCNKNCKCFEQWVNIKKTEWKNVTEYFFKHDETSKKKYCEILKDIFENYYVEVIEKFYKGKHKWKERIEKLKNMDCSQVKIGTNASQDQIDIFLSNLKGDATQCTSKNPKSACNKPHAARIITRATTRNPC    Not met
CIDRα1.6a domain of PfEMP1 HB3var02 (domain or fragment, also called CIDRa1.6a HB3var02_HB3; HB3var02 (1.6a)) PECGVQCSGTTCTPKKVIHPNCKDKETYEPGDAKTTDITVLYSGDEEGDIAQKLQDFCNDKNKENDENYEKWQCYYKSSEINKCQMTRSSKKVPKHRGVMSFYAFFDLWVKNLLIDSINWKNDLTNCINNTNVTDCNKDCNKNCVCFDQWVIKKEEEWKNVNKVFENKNIDLHDYYNKLNKHFEGYFFHVMKELNKEEKWYKLMEDLKEKIDFSKGKADGKNSEGAIKVLFDHLKEIAEKCIHNNSNESCEASTNRTPNPC    Not met

# check: Kd < 50 nM for CIDRα1.5a domain 1965-2 (patient isolate 1965) (domain or fragment) PDCGVECKNGRCKKKTDADGNCGKTQIYDIPKDVTPTDINVLYSGDEYGDIAKRLSEFCRDSKKENGKNTEIWHCYYIGDKHNQCKMEKAVAENKHQTKITTFDFFFDLWIKNLLRDTINWKSQLKNCINNTNKTNCNKTCNENCKCFENWVNQKEKEWNNMKELFKNKNRTSQNYYNKLKSHFDNYFFLVINNVNKGEAKWKKFTDELRNKIDSSKAKNGTSDSQDSIKMLLEHLKEDGTTCTANNPDSICNTPGTDARSLEPASKIEPQNKDTRTNPC
Not met
